assay: Forced degradation experiment of active ingredient (acid, alkali, oxidation, high temperature, light, high humidity), HPLC; format: physicochemical; settings: Oxidative destruction
metric-name: Impurities C + D (%)
Give bare numbers, in %.

Q: GET /values?readout=Impurities C + D&item= CC[C@@H](c1ccccc1)N1Cc2cc3c(cc2C[C@H]1C(=O)N[C@@H](Cc1ccc(-c2ccnc(C)c2C)cc1)C(=O)O)OC[C@H](c1ccc(OCc2ccc(Cl)c(Cl)c2)cc1)O3 [OAD2]
A: 0.18

###

assay: Forced degradation experiment of active ingredient (acid, alkali, oxidation, high temperature, light, high humidity), HPLC; assay type: physicochemical; conditions: Alkali destruction
metric-name: Total Impurities (%)
Numbers only, in %.

Q: GET /values?readout=Total Impurities&item= "CC[C@@H](c1ccccc1)N1Cc2cc3c(cc2C[C@H]1C(=O)N[C@@H](Cc1ccc(-c2ccnc(C)c2C)cc1)C(=O)O)OC[C@H](c1ccc(OCc2ccc(Cl)c(Cl)c2)cc1)O3"
A: 0.73

###

experiment: Forced degradation experiment of active ingredient (acid, alkali, oxidation, high temperature, light, high humidity), HPLC; assay type: physicochemical; settings: Acid destruction
metric-name: Impurities C + D (%)
Give bare numbers, in %.

Q: GET /values?readout=Impurities C + D&item= "CC[C@@H](c1ccccc1)N1Cc2cc3c(cc2C[C@H]1C(=O)N[C@@H](Cc1ccc(-c2ccnc(C)c2C)cc1)C(=O)O)OC[C@H](c1ccc(OCc2ccc(Cl)c(Cl)c2)cc1)O3"
A: 0.03

###

test: Forced degradation experiment of active ingredient (acid, alkali, oxidation, high temperature, light, high humidity), HPLC; format: physicochemical; details: Acid destruction
metric-name: Total Impurities (%)
Give bare numbers, in %.

Q: GET /values?readout=Total Impurities&item= "CC[C@@H](c1ccccc1)N1Cc2cc3c(cc2C[C@H]1C(=O)N[C@@H](Cc1ccc(-c2ccnc(C)c2C)cc1)C(=O)O)OC[C@H](c1ccc(OCc2ccc(Cl)c(Cl)c2)cc1)O3"
A: 0.65

###

test: Forced degradation experiment of active ingredient (acid, alkali, oxidation, high temperature, light, high humidity), HPLC; format: physicochemical; settings: High temperature destruction
metric-name: Total Impurities (%)
Answers are plain numbers, in %.

Q: GET /values?readout=Total Impurities&item= CC[C@@H](c1ccccc1)N1Cc2cc3c(cc2C[C@H]1C(=O)N[C@@H](Cc1ccc(-c2ccnc(C)c2C)cc1)C(=O)O)OC[C@H](c1ccc(OCc2ccc(Cl)c(Cl)c2)cc1)O3 [OAD2]
A: 7.8

###

assay: Forced degradation experiment of active ingredient (acid, alkali, oxidation, high temperature, light, high humidity), HPLC; type: physicochemical; settings: Alkali destruction
metric-name: Impurities C + D (%)
Answers are plain numbers, in %.

Q: GET /values?readout=Impurities C + D&item= "CC[C@@H](c1ccccc1)N1Cc2cc3c(cc2C[C@H]1C(=O)N[C@@H](Cc1ccc(-c2ccnc(C)c2C)cc1)C(=O)O)OC[C@H](c1ccc(OCc2ccc(Cl)c(Cl)c2)cc1)O3"
A: 0.05

###

Assay: Forced degradation experiment of active ingredient (acid, alkali, oxidation, high temperature, light, high humidity), HPLC
Format: physicochemical
Conditions: No destruction
Procedure: Preparation of solutions: • (1) destructive test article solution: 25 mg of OAD2 or a pharmaceutically acceptable salt thereof was placed into a 50 ml measuring flask. […] The measuring method: 2 μl of each of the above solutions (1)-(10) was injected into a liquid chromatograph, and the chromatograms were recorded. […]
metric-name: Impurities C + D (%)
Give bare numbers, in %.

Q: GET /values?readout=Impurities C + D&item= CC[C@@H](c1ccccc1)N1Cc2cc3c(cc2C[C@H]1C(=O)N[C@@H](Cc1ccc(-c2ccnc(C)c2C)cc1)C(=O)O)OC[C@H](c1ccc(OCc2ccc(Cl)c(Cl)c2)cc1)O3 [OAD2]
A: 0.05
